Tested on: Antibody to Immunogen VII
Type: binding, sheep
Settings: Cross-reactants at 100 ng/ml; Antibody to Immunogen VII
measuredParameter: %B/B0 (%)
# unit: % | format: bare number

CCCCCCn1cc(C(=O)c2cccc3ccccc23)c2cc(O)ccc21 [JWH 019 5-hydroxyindole metabolite] ... 87.58
O=C(O)c1c[nH]c2ccccc12 [Indole-3-carboxylic Acid] ... 96.90

Lookup: Provide measured %B/B0 value, entry: CCCCCCC(C)(C)C1=CC(=O)C([C@@H]2CCC[C@H](O)C2)=CC1=O [CP-47,497-para-quinone analogue]
Found: 93.29

Lookup: Provide measured %B/B0 value, entry: COc1ccc(C(=O)c2cn(CCCC(C)O)c3ccccc23)cc1 (stereo not shown) [RCS-4 N-(4-hydroxypentyl) metabolite]
Found: 95.72

* * *

Test system: Antibody to Immunogen VII
Format: binding, sheep
Conditions: Cross-reactants at 100 ng/ml; Antibody to Immunogen VII
Catalogue of %B/B0 readings, one per entry.
# unit: % | format: bare number

Consider the reported %B/B0 for these molecules:
O=C(O)CCCn1cc(C(=O)c2cccc3ccccc23)c2ccccc21 [JWH-073 N-butanoic acid metabolite] ... 60.01
CCCCn1cc(C(=O)c2cccc3ccccc23)c2ccccc21 [JWH-073] ... 58.34
CC(C)C(C)n1cc(C(=O)c2cccc3ccccc23)c2ccccc21 (single isomer, unassigned) [JWH 018 N-(1,2-dimethylpropyl) isomer] ... 62.29
CCCCCCC(C)(C)c1cc(O)c2c(c1)OC(C)(C)[C@@H]1CC=C(CO)C[C@@H]21 [HU-210] ... 100.39
CCCCCn1cc(C(=O)c2cccc3ccc(C)cc23)c2ccccc21 [JWH 122 7-methylnaphthyl isomer] ... 92.44

Lookup: Provide measured %B/B0 value, entry: CCCCCn1ccc(C(=O)c2cccc3ccccc23)c1 [JWH-030]
Found: 89.66

Lookup: Provide measured %B/B0 value, entry: CCC(C)Cn1cc(C(=O)c2cccc3ccccc23)c2ccccc21 (single isomer, unassigned) [JWH-018 N-(2-methylbutyl) isomer (JWH-073 2-methylbutyl homologue), JWH-018 N-(2-methylbutyl) isomer]
Found: 58.84

* * *

Tested on: antibodies raised to Immunogens I & II
Assay: Competitive ELISA (Example 19), sensitivity and cross-reactivity of selected molecules, one result for both antibodies
Type: binding, sheep
Settings: first Table 3; Standard Conc 750.00 ng/ml
Catalogue of IC50 readings, one per entry.

CCCCCc1cc(O)c2c(c1)OC(C)(C)[C@@H]1CCC(CO)=C[C@@H]21 [11-Hydroxy-δ-9-THC] ... > 750.00 ng/mL
OCCc1c[nH]c2ccc(O)cc12 [5-hydroxytryptophol] ... > 750.00 ng/mL
CCCCCc1cc(O)c2c(c1)OC(C)(C)c1ccc(C)cc1-2 ... > 750.00 ng/mL
COc1cccc2[nH]cc(CCN(C)C)c12 ... > 750.00 ng/mL

Lookup: Provide measured IC50 value, entry: "CCCCCc1cc(O)c2c(c1)OC(C)(C)[C@@H]1CCC(C)=C[C@@H]21"
Found: > 750.00 ng/mL

Lookup: Provide measured IC50 value, entry: CCCCCCC(C)(C)c1ccc([C@H]2CCC[C@@H](O)C2)c(O)c1 (racemic) [CP-49,497-C7 ((+-) CP 47,497), CP 47,497]
Found: > 750.00 ng/mL

Lookup: Provide measured IC50 value, entry: "NCCc1c[nH]c2ccc(O)cc12"
Found: > 750.00 ng/mL

Lookup: Provide measured IC50 value, entry: "CCCCCn1cc(C(=O)O)c2ccccc21"
Found: > 750.00 ng/mL

Lookup: Provide measured IC50 value, entry: O=C(O)Cc1c[nH]c2ccc(O)cc12 [5-hydroxyindole-3-acetic acid (5-HIAA), 5-hydroxyindole-3-acetic acid]
Found: > 750.00 ng/mL

Lookup: Provide measured IC50 value, entry: "O=C(O)c1c[nH]c2ccccc12"
Found: > 750.00 ng/mL

* * *

System: antiserum raised to Immunogen II (Hapten B-BTG)
Assay: Competitive ELISA microtiter plate assay (Example 19), antiserum raised to Immunogen II, Hapten A-HRP conjugate as detection reagent
Assay type: binding, sheep
Settings: Table 1; 40 ng/ml highest concentration tested
Catalogue of IC50 readings, one per entry.
# unit: ng/mL | format: bare number

CCCCn1cc(C(=O)c2cccc3ccccc23)c2ccccc21 ... 1.56
O=C(c1cccc2ccccc12)c1cn(CCN2CCOCC2)c2ccccc12 ... 1.66
CCCCCn1cc(C(=O)c2cccc3ccccc23)c2cc(O)ccc21 [JWH-018 5-hydroxyindole metabolite] ... 1.62
CCCCCn1cc(C(=O)c2cccc3ccccc23)c2ccc(O)cc21 [JWH-018 6-hydroxyindole metabolite] ... 0.98

Consider now this further compound.
Lookup: Provide measured IC50 value, entry: "CCCCCn1cc(C(=O)c2ccc(Cl)c3ccccc23)c2ccccc21"
Found: 17.55

* * *

Test system: Antibody to Immunogen VII
Assay type: binding, sheep
Conditions: Cross-reactants at 100 ng/ml; Antibody to Immunogen VII
Catalogue of %B/B0 readings, one per entry.
# unit: % | format: bare number

Lookup: Provide measured %B/B0 value, entry: CCCCCn1c(O)c(C(=O)c2cccc3ccccc23)c2ccccc21 [JWH-018 2-hydroxyindole metabolite]
Found: 95.08

Lookup: Provide measured %B/B0 value, entry: CCCCCCC(C)(C)c1ccc([C@H]2CCC[C@@H](O)C2)c(O)c1 (racemic) [CP-49,497-C7 ((+-) CP 47,497), CP 47,497]
Found: 94.23

Lookup: Provide measured %B/B0 value, entry: CCCCCn1cc(C(=O)c2cccc3ccccc23)c2cccc(O)c21 [JWH-018 7-hydroxyindole metabolite]
Found: 68.53

Lookup: Provide measured %B/B0 value, entry: O=C(c1cccc2ccccc12)c1cn(CCCCCF)c2ccccc12 [AM-2201]
Found: 55.28

* * *

Test system: antibodies raised to Immunogens I & II
Experiment: Competitive ELISA (Example 19), sensitivity and cross-reactivity of selected molecules, one result for both antibodies
Format: binding, sheep
Settings: result in words
measuredParameter: binding / cross-reaction with antibodies raised from Immunogens I and II

O=C(c1cccc2ccccc12)c1cn(CCCCCF)c2ccccc12 [5-Fluoropentyl derivative] ... binds
O=C(O)CCCCn1cc(C(=O)c2cccc3ccccc23)c2ccccc21 [JWH-018 N-pentanoic acid metabolite] ... bind
CCn1cc(C(=O)c2cccc3ccccc23)c2ccccc21 [JWH-071] ... bind
CCCCCn1cc(C(=O)c2ccc(Cl)c3ccccc23)c2ccccc21 [JWH-398] ... bind
